Target Of Assay: Phospho-N-acetylmuramoyl-pentapeptide-transferase (Escherichia coli K-12)
Sequence (P0A6W3 whole entry): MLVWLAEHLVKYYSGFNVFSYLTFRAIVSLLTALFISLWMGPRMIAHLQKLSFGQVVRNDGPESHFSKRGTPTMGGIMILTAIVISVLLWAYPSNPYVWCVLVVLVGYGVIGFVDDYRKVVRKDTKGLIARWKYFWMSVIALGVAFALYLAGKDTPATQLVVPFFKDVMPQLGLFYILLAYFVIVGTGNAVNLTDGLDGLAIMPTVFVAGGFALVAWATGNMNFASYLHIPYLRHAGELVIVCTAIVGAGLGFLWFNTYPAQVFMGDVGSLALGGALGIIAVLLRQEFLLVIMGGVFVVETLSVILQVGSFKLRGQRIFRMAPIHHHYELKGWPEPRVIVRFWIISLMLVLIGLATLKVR
Test Details: Inhibitory concentration required against Translocase I
pIC50: −log10 of the molar value.
Quick reference for pIC50 among some compounds

Chemical Smiles	Target Of Assay	Readout Qualifier	pIC50
CCCCCCCCC(=O)O[C@@H]1[C@H](OC)[C@@H]([C@@H](O[C@H]2OC(C(=O)Nc3ccccc3)=C[C@H](O)[C@@H]2O)C(N)=O)O[C@H]1n1ccc(=O)[nH]c1=O	Phospho-N-acetylmuramoyl-pentapeptide-transferase (Escherichia coli K-12)	=	5.98
CCCCCCCCCOC(=O)O[C@@H]1[C@H](OC)[C@@H]([C@@H](O[C@H]2OC(C(=O)N[C@H]3CCC[C@@H](C)NC3=O)=C[C@H](O)[C@@H]2O)C(N)=O)O[C@H]1n1ccc(=O)[nH]c1=O	Phospho-N-acetylmuramoyl-pentapeptide-transferase (Escherichia coli K-12)	=	5.73
CCCCCCCCCCCCCCCCOC(=O)O[C@@H]1[C@H](OC)[C@@H]([C@@H](O[C@H]2OC(C(=O)N[C@H]3CCC[C@@H](C)NC3=O)=C[C@H](O)[C@@H]2O)C(N)=O)O[C@H]1n1ccc(=O)[nH]c1=O	Phospho-N-acetylmuramoyl-pentapeptide-transferase (Escherichia coli K-12)	<	5.53
CCCCCCCCCCC(C)(C)C(=O)O[C@@H]1[C@H](OC)[C@@H]([C@@H](O[C@H]2OC(C(=O)N[C@H]3CCC[C@@H](C)NC3=O)=C[C@H](O)[C@@H]2O)C(N)=O)O[C@H]1n1ccc(=O)[nH]c1=O	Phospho-N-acetylmuramoyl-pentapeptide-transferase (Escherichia coli K-12)	=	5.90
CCCCC(=O)O[C@@H]1[C@H](OC)[C@@H]([C@@H](O[C@H]2OC(C(=O)N[C@H]3CCC[C@@H](C)NC3=O)=C[C@H](O)[C@@H]2O)C(N)=O)O[C@H]1n1ccc(=O)[nH]c1=O	Phospho-N-acetylmuramoyl-pentapeptide-transferase (Escherichia coli K-12)	=	7.44
CCCCCCCCCCCC(=O)O[C@@H]1[C@H](OC)[C@@H]([C@@H](O[C@H]2OC(C(=O)Nc3ccccc3)=C[C@H](O)[C@@H]2O)C(N)=O)O[C@H]1n1ccc(=O)[nH]c1=O	Phospho-N-acetylmuramoyl-pentapeptide-transferase (Escherichia coli K-12)	<	5.46
CCCCCCCCCC(=O)O[C@@H]1[C@H](OC)[C@@H]([C@@H](O[C@H]2OC(C(=O)Nc3ccccc3)=C[C@H](O)[C@@H]2O)C(N)=O)O[C@H]1n1ccc(=O)[nH]c1=O	Phospho-N-acetylmuramoyl-pentapeptide-transferase (Escherichia coli K-12)	=	5.56
CCCCCCCCCCCCCC(=O)O[C@@H]1[C@H](OC)[C@@H]([C@@H](O[C@H]2OC(C(=O)N[C@H]3CCC[C@@H](C)NC3=O)=C[C@H](O)[C@@H]2O)C(N)=O)O[C@H]1n1ccc(=O)[nH]c1=O	Phospho-N-acetylmuramoyl-pentapeptide-transferase (Escherichia coli K-12)	=	5.25
CCCCCCCCCCCCCCC(=O)O[C@@H]1[C@H](OC)[C@@H]([C@@H](O[C@H]2OC(C(=O)N[C@H]3CCC[C@@H](C)NC3=O)=C[C@H](O)[C@@H]2O)C(N)=O)O[C@H]1n1ccc(=O)[nH]c1=O	Phospho-N-acetylmuramoyl-pentapeptide-transferase (Escherichia coli K-12)	=	5.53
CCCCCCCCCCCC(=O)O[C@@H]1[C@H](OC)[C@@H]([C@@H](O[C@H]2OC(C(=O)N[C@H]3CCC[C@@H](C)NC3=O)=C[C@H](O)[C@@H]2O)C(N)=O)O[C@H]1n1ccc(=O)[nH]c1=O	Phospho-N-acetylmuramoyl-pentapeptide-transferase (Escherichia coli K-12)	=	5.54
